Below is a list of entries, each paired with its recorded CC50 at 5 days value.
assay-remarks: in vitro
stated-conditions: human, uninfected MT-4 cells, CC50 (nM), same protocol as Test A, CellTiter-Glo

compound	CC50 at 5 days
NC(=O)c1cc(-c2cccnc2[C@H](Cc2cc(F)cc(F)c2)NC(=O)Cn2[nH]c(=O)c3c2CCCC3)ccc1F [Example 123E]	> 53200 nM
NC(=O)c1cc(-c2cccnc2[C@H](Cc2cc(F)cc(F)c2)NC(=O)Cn2nc(C(=O)O)c3c2C2CCC3C2)ccc1F (stereo partly drawn) [Example 409]	> 53200 nM
N#Cc1nn(CC(=O)N[C@@H](Cc2cc(F)cc(F)c2)c2ncccc2-c2ccc(F)c(C(N)=O)c2)c2c1C1CC1C2 (stereo partly drawn) [Example 242D]	25500 nM
O=C(Cc1c[nH]c2ccc(O)nc12)N[C@@H](Cc1cc(F)cc(F)c1)c1nccnc1-c1ccc(Cl)cc1 (stereo in doubt) [Example 476]	53200 nM
COc1ccc(-c2cccnc2[C@H](Cc2cccc(F)c2)NC(=O)Cc2c[nH]c3ccc(O)cc23)cc1 [Example 28]	26000 nM
CS(=O)(=O)Nc1ccc(-c2cccnc2[C@H](Cc2cc(F)cc(F)c2)NC(=O)Cn2nc(C(F)F)c3c2C(F)(F)C2CC32)cc1 (stereo partly drawn) [Example 433]	20800 nM
